Below, each of the binders is paired with its reported neutralization IC50 value.
test-target: Env of HIV-1 strain YU2.DG (HIV-1)
procedure-details: cell-based or functional assay
reported-property: neutralization IC50 (mg/L)

>  <binder>
γ3κ18 (antibody, V domains shown) VH: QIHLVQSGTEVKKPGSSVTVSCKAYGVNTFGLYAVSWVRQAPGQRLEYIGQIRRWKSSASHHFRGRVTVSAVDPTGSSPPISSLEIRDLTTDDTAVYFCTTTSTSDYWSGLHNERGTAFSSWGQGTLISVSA VL: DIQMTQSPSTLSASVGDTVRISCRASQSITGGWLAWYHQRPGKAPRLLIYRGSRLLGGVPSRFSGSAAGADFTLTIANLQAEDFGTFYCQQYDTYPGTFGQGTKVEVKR

>  <sign>
=

>  <numeric-value>
0.07

$$$$
>  <binder>
γ15κ18 (antibody, V domains shown) VH: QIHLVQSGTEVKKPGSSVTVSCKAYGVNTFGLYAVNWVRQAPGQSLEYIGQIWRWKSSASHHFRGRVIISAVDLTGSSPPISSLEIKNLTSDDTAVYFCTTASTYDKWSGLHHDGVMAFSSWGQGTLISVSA VL: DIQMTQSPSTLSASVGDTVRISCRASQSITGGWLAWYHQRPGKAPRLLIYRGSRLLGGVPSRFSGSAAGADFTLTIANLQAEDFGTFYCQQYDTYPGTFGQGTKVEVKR

>  <sign>
=

>  <numeric-value>
1.17

$$$$
>  <binder>
γ4κ18 (antibody, V domains shown) VH: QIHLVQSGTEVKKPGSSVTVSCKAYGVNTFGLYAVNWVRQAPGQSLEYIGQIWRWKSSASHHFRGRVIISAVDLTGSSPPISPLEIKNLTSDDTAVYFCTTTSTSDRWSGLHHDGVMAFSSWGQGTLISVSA VL: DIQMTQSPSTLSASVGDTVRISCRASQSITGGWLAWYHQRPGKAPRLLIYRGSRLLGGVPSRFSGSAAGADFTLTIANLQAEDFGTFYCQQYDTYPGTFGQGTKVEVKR

>  <sign>
>

>  <numeric-value>
15

$$$$
>  <binder>
γ23κ5 (antibody, V domains shown) VH: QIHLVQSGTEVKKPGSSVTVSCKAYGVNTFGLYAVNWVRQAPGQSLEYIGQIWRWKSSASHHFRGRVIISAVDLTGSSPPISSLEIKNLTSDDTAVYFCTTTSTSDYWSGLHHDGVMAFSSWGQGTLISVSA VL: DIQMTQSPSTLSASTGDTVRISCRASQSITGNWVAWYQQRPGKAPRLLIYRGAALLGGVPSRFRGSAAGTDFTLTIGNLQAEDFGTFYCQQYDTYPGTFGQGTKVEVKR

>  <sign>
=

>  <numeric-value>
0.136

$$$$
>  <binder>
γ23κ11 (antibody, V domains shown) VH: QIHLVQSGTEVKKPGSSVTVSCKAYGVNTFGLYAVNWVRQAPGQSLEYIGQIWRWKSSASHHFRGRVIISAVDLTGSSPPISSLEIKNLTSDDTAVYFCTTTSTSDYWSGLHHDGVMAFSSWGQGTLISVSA VL: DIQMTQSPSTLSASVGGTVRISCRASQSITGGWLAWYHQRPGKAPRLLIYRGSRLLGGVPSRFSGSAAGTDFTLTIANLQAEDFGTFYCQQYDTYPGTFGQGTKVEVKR

>  <sign>
=

>  <numeric-value>
0.34

$$$$
